Quick reference for inhibition among some compounds
- TESTED ON: Glucose transporter (Leishmania mexicana)
- PROCEDURE SUMMARY: ST_JUDE_LEISH: Cytotoxicity at 2uM final concentration against transgenic Leishmania Mexicana promastigotes LmGT2 that are glucose transport deficient and complemented with the L. Mexicana glucose transporter 2. Activity is measured by DNA content using SYBR green in vitro
- Type: functional
Field format: number, assumed %, no unit text.

Guide cases for inhibition, answers given:
CCc1ccc(CNCC(CCNc2cc(=O)c3ccccc3[nH]2)NCc2cc(Br)cc(Br)c2)o1 (centres undefined); -0.33
NCc1ccc(CNCc2cccc(-c3cccc(-c4nc5cc(F)ccc5[nH]4)c3)c2)cc1; 8.54
CN1CCC(c2cc3c(cc2Br)CCN3C(=O)Nc2ccc(-c3ccncc3)c(Cl)c2)CC1; 0.25
Cc1ccc(/C=C/C(=O)NC2CCC(N3CCC(c4ccccc4C)CC3)CC2)cc1C (centres undefined); 1.93
CN1CCCC(CN2CCN(Cc3cccc(-c4csc(-c5nc6ccccc6[nH]5)c4)c3)CC2)C1 (centres undefined); 1.91
Cc1cc(NC(=O)c2cccs2)ccc1OC1CCN(Cc2ccccc2)CC1; 3.22
O=C(Nc1ccc(Cl)c(Cl)c1)N[C@H]1CCN(CCCCCNC(=O)C2CC2c2ccc(Cl)c(Cl)c2)C1 (some centres undefined); 10.6
O=C(Cn1c(CCc2cccc(F)c2F)cc(=O)c2ccccc21)N(Cc1ccc(-c2ccc(C(F)(F)F)cc2)cc1)C1CCN(CCO)CC1; 4.47
COc1ccc(-c2nonc2NC(=O)c2ccc(C(C)(C)C)cc2)cc1OC; -0.16
Cc1nc(C)c(-c2ccc(Oc3cc(Cl)cc(Cl)c3)cc2)c(O)c1Br; -1.58

Which inhibition reading was recorded for the compound O=S(=O)(c1csc2ccccc12)N(CCC(O)(C(F)(F)F)C(F)(F)F)Cc1cccc(O)c1 ? -4.98

Item Cc1ccc(-n2nc(-c3ccccc3)c3cc(C(=O)NCCN)sc32)cc1 has what recorded inhibition? -6.61

Using the record for O=C(NC(c1ccccc1)c1ccc2cccnc2c1O)c1ccccc1 (centres undefined) , report its inhibition. 4.35

Param item = S=C(NN=Cc1ccccn1)NC1CC2C=CC1C2 (centres undefined) ; retrieve measured inhibition. -1.49

Could you tell me which inhibition is on file for O=C(Nc1cc(F)cc(F)c1)N1CCOC(CCN2CCC3(CCc4ccccc43)CC2)(c2ccc(Cl)c(Cl)c2)C1 (centres undefined) ? 1.78

====

- TESTED ON: Glucose transporter (Leishmania mexicana) (UniProt O61059)
- PROCEDURE SUMMARY: ST_JUDE_LEISH: Cytotoxicity at 2uM final concentration against transgenic Leishmania Mexicana promastigotes LmGT2 that are glucose transport deficient and complemented with the L. Mexicana glucose transporter 2. Activity is measured by DNA content using SYBR green in vitro
- Assay type: functional
MEASUREMENT TYPE: inhibition (%)
Value expressed in %; do not type the unit.

[O-][s+]1c(Cl)c(-c2ccc(Cl)cc2)c2ccc(Cl)cc21 (stereo not drawn); 3.59
COc1ccc(C(=O)CCC(=O)N(Cc2ccc(-c3ccc(CNCc4cccnc4)cn3)cc2)C2CCN(Cc3ccccc3)CC2)cc1F; 3.53
C#CCN(Cc1ccc2[nH]c(N)nc(=O)c2c1)c1ccc(C(=O)N[C@@H](CCC(=O)O)C(=O)O)cc1; 3.66

Below: the item to evaluate.
Requested read-out: inhibition. Entry: CC1(C)C(N(O)C(=O)Nc2ccc(Cl)c(Cl)c2)N(c2ccc(Cl)c(Cl)c2)C(=O)N1CCc1ccccc1 (stereo not drawn) 0
